For each record, write down the corresponding viability, T/C.
# Test system: KRAS patient-derived spheroids with HUVEC/MSC, viability;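 further: spheroids exposed to agents for 7 days; 100% = DMSO vehicle control viability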
# assay_protocol: Anticancer human tumor 323965-272-R-J2-PDC patient-derived pancreatic carcinoma cell line growth inhibition [KRAS2]
# applied_conditions: second compound 0.0316 µM; first compound 0.001 µM; stronger effect = lower value
All answers are understood in %, so give the number only.

GET /value?item= CC(C)n1nc(-c2ccc3oc(N)nc3c2)c2c(N)ncnc21 + C=CC(=O)N1CCN(c2nc(OCC3CCCN3C)nc3c2CCN(c2cccc4cccc(C)c24)C3)CC1CC#N &field=viability, T/C returns 49.6

Input Cn1ncnc1[C@H]1c2n[nH]c(=O)c3cc(F)cc(c23)N[C@@H]1c1ccc(F)cc1 + C=CC(=O)N1CCN(c2nc(OCC3CCCN3C)nc3c2CCN(c2cccc4cccc(C)c24)C3)CC1CC#N . Output viability, T/C: 83.2

Field viability, T/C (entry CN(C)C/C=C/C(=O)Nc1cc2c(Nc3ccc(F)c(Cl)c3)ncnc2cc1O[C@H]1CCOC1 + C=CC(=O)N1CCN(c2nc(OCC3CCCN3C)nc3c2CCN(c2cccc4cccc(C)c24)C3)CC1CC#N ) reads 66.2

The recorded viability, T/C for entry CC(=O)Nc1cccc(-n2c(=O)n(C3CC3)c(=O)c3c(Nc4ccc(I)cc4F)n(C)c(=O)c(C)c32)c1 + C=CC(=O)N1CCN(c2nc(OCC3CCCN3C)nc3c2CCN(c2cccc4cccc(C)c24)C3)CC1CC#N equals 53.4
